Molecular target: DNA-dependent protein kinase catalytic subunit (Homo sapiens, UniProt P78527)
Sequence (P78527 whole entry): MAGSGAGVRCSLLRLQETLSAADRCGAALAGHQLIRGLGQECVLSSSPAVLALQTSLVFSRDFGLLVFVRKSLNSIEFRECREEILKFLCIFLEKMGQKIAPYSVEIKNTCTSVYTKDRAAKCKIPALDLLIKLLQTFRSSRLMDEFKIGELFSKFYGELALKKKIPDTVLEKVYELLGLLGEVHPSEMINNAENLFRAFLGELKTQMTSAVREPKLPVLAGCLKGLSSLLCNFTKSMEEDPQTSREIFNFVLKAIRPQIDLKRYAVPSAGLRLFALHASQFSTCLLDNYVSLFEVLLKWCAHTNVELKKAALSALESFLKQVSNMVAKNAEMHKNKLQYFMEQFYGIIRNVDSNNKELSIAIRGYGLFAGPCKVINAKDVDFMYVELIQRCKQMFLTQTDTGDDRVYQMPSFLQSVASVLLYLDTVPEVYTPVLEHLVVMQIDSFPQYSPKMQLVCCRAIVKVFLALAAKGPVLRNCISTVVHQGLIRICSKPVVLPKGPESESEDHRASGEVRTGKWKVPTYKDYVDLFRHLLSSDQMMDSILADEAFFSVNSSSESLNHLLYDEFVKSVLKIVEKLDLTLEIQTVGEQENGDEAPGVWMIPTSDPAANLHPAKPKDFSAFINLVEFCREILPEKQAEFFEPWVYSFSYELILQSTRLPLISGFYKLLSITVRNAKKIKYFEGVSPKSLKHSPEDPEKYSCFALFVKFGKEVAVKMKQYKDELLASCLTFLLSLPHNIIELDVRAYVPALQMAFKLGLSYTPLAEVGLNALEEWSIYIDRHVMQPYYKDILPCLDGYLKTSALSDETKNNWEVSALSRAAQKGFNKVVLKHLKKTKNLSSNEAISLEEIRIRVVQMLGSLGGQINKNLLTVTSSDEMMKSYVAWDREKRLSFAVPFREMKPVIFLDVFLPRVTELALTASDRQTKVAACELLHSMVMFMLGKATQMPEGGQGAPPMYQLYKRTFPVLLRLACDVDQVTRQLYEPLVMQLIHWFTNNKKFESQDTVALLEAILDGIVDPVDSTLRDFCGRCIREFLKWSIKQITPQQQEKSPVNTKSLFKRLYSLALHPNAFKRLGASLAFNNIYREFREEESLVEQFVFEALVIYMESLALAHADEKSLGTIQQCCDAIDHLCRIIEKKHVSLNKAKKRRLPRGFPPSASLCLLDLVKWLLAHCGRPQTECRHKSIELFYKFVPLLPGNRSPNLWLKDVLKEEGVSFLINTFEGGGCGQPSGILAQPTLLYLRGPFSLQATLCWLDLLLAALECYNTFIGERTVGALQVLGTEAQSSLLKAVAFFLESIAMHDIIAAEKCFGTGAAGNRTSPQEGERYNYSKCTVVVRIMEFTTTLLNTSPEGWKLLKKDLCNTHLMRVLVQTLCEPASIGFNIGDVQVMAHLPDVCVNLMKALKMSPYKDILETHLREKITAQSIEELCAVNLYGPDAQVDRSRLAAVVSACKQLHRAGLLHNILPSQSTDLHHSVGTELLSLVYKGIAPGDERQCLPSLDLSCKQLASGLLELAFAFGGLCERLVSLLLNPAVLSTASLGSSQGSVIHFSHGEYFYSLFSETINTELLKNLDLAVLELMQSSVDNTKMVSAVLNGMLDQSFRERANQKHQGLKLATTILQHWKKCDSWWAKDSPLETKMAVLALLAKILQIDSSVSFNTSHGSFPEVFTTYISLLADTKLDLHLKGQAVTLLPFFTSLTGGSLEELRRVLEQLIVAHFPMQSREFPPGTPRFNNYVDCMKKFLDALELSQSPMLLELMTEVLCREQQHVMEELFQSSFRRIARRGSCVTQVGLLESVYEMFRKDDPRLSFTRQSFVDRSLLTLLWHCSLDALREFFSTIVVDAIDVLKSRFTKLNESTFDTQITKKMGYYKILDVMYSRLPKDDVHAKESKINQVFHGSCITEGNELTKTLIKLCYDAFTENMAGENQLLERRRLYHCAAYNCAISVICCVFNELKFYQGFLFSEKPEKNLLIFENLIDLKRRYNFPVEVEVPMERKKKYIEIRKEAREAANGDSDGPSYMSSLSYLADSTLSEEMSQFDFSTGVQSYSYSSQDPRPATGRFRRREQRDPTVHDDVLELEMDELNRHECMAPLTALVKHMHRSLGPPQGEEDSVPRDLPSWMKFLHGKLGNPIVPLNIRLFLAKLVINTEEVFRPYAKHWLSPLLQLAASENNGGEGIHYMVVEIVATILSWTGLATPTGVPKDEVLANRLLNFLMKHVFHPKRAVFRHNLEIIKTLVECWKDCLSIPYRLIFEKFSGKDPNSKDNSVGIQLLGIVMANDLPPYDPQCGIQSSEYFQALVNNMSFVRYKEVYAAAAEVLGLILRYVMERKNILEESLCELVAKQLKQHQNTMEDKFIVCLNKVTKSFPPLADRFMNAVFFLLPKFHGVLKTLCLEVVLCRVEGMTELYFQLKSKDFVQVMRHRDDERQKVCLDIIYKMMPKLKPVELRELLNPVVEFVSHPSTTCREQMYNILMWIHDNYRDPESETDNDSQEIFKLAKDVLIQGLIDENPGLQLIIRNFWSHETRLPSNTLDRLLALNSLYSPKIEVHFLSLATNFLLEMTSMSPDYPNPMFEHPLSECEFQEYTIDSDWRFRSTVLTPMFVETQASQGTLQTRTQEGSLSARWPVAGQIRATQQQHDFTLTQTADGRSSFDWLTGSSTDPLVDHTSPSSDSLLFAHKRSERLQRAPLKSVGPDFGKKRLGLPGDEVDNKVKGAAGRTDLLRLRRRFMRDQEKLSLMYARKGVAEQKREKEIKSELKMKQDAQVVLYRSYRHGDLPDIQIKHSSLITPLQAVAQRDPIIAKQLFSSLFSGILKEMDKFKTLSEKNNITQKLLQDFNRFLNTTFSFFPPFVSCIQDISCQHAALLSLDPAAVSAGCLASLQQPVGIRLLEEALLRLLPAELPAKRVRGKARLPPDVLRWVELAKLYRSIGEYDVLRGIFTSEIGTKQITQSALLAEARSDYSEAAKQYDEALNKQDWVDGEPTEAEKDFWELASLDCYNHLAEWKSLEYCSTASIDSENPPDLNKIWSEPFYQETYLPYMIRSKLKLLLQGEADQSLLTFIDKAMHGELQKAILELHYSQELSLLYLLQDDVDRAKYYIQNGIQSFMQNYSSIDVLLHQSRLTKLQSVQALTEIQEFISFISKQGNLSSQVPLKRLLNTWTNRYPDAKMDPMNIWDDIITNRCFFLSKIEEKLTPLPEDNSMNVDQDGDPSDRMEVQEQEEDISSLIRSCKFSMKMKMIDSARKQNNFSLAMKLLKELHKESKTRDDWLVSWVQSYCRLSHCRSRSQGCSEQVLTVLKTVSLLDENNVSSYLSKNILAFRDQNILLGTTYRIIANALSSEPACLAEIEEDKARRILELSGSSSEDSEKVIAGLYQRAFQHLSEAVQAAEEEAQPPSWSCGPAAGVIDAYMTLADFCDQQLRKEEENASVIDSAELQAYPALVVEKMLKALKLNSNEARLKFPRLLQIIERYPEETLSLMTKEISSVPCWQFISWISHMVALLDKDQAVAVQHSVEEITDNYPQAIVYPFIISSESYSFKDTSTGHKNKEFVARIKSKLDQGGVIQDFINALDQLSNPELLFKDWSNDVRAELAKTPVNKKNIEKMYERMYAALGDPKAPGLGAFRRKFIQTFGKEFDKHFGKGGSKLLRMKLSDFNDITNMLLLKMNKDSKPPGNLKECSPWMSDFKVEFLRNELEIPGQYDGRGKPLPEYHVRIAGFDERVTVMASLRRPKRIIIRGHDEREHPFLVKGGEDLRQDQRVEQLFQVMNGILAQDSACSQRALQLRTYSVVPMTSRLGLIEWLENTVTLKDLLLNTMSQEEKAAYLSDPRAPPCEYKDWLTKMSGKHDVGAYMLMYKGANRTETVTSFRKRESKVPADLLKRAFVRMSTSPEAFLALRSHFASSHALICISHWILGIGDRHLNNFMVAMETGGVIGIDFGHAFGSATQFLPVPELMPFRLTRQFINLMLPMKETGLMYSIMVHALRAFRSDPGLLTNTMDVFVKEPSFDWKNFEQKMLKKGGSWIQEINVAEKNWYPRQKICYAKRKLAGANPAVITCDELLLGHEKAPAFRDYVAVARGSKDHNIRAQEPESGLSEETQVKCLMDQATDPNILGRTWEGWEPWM
Assay: Inhibition of human DNA-PK assessed as reduction in protein phosphorylation by ELISA
MEASURED ENDPOINT: IC50
Answer by giving the amount and then stating its unit.

Data request, read-out IC50, for Cc1cc([C@@H](C)Nc2ccccc2C(=O)O)c2nc(N3CCOCC3)cc(=O)n2c1 [AZD-6482]
0.42 µM

====

Biological target: Serine/threonine-protein kinase mTOR (Homo sapiens, UniProt P42345)
MEASURED ENDPOINT: pIC50
Numbers only, as −log10 of the molar value.

Name the reported pIC50 value associated with the molecule `Cc1cc([C@@H](C)Nc2ccccc2C(=O)O)c2nc(N3CCOCC3)cc(=O)n2c1`
5.10
